The measurements presented in this section are drawn from patent US10227357B2.

# system: c-kit kinase (Homo sapiens)
# Construct: The c-kit (or kinase domain thereof) is an active kinase in AlphaScreen; poly-Histidine tag (in-house protein only) (cleaved yes); host or cells: E. coli BL21(DE3)RIL, co-expressed with PTP1B
# Sequence (P10721 26-976): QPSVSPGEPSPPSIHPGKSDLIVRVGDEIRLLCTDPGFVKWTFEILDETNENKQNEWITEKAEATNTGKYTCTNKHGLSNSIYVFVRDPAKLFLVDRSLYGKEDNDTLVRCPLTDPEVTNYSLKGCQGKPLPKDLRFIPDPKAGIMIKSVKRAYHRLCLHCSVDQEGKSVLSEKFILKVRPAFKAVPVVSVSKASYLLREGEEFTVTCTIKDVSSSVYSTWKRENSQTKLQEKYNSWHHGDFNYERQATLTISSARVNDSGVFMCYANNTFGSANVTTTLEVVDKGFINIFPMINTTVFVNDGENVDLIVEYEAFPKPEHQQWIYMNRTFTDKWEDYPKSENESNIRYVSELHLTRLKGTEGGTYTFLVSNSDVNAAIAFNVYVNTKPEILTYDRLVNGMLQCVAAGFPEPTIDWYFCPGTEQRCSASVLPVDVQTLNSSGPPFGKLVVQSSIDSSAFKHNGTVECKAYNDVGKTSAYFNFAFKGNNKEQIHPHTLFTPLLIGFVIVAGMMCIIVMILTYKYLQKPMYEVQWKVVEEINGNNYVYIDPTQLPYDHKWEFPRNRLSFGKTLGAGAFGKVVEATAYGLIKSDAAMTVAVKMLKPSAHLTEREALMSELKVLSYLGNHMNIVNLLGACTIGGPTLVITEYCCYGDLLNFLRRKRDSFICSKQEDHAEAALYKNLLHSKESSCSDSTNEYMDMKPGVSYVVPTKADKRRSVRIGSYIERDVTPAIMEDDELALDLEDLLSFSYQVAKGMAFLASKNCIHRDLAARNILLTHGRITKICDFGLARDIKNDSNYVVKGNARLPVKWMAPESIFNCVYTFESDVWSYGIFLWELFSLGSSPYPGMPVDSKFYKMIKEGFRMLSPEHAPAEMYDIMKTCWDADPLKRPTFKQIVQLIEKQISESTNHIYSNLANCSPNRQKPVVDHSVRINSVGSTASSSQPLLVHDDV
# assay-summary: c-Kit biochemical assay, AlphaScreen, 10 μM ATP
# study-conditions: c-kit biochemical inhibitory activity; read-out: Biochemical activity (IC50 μM) Kit
outcome-measure: IC50

Retrieve IC50 on c-kit kinase (Homo sapiens); query CCCS(=O)(=O)NC1CCN(c2ncnc3[nH]ccc23)CC1 [P-0532] 10 to 200 µM

Retrieve IC50 on c-kit kinase (Homo sapiens); query COc1cc(-c2cc3c(N4CCN(C(=O)N[C@@H](C)c5ccc(F)cc5)C(C)(C)C4)ncnc3[nH]2)ccn1 [P-0643] 1 to 10 µM

Retrieve IC50 on c-kit kinase (Homo sapiens); query C[C@H](NC(=O)N1CCN(c2ncnc3cc(-c4ccc(F)cc4)sc23)CC1(C)C)c1cccc(OC(F)F)c1 [P-0577] 10 to 200 µM
